- TARGET_DESC: CYP450, 2D6 (Homo sapiens)
- Construct: gene CYP2D6
- Sequence (P10635 whole entry): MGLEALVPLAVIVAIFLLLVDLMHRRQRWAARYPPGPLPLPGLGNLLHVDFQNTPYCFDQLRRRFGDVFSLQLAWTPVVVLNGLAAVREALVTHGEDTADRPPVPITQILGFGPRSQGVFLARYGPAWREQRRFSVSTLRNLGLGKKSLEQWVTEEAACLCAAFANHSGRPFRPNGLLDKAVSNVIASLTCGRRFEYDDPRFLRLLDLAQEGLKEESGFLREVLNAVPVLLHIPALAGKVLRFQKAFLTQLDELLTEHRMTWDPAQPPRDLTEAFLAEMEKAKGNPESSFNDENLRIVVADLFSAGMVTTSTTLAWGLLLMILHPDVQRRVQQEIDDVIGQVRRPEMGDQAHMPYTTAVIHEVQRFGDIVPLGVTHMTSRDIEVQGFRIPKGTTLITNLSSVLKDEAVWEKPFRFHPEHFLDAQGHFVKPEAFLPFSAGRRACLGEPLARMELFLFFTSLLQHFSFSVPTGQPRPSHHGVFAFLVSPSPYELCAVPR
- EXPERIMENTAL_PROTOCOL: in vitro
- Set-up: MDS Pharma Lead Profiling + CYP450 screen, enzyme assays, per cent inhibition, duplicate
OUTCOME_MEASURE: inhibition at 10 µM

Quote inhibition at 10 µM reported for Cc1ccc2c(c1)c1c(n2CCc2ccc(C)nc2)CCN(C)C1 please. 16%

====

- TARGET_DESC: CYP450, 1A2 (Homo sapiens, UniProt P05177)
- Construct: gene CYP1A2
- Sequence (P05177 whole entry): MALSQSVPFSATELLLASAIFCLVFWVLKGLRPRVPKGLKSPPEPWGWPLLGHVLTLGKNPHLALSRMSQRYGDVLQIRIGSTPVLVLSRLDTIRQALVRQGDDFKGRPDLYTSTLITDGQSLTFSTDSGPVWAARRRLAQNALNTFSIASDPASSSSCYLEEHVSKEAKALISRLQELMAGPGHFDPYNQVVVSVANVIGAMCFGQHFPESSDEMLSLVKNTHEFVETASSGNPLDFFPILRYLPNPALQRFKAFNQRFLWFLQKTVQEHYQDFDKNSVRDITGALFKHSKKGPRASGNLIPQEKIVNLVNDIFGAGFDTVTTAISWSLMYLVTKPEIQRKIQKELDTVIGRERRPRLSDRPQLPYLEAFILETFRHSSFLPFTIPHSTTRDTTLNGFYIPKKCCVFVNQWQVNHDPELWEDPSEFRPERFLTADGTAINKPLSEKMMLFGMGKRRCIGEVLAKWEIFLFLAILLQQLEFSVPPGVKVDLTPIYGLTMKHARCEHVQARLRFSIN
- EXPERIMENTAL_PROTOCOL: in vitro
- Set-up: MDS Pharma Lead Profiling + CYP450 screen, enzyme assays, per cent inhibition, duplicate
OUTCOME_MEASURE: inhibition at 10 µM (%)
Lab book: enter the figure in %, no units written.

Name the recorded inhibition at 10 µM of the item Cc1ccc2c(c1)c1c(n2CCc2ccc(C)nc2)CCN(C)C1 in your answer. 5

====

- TARGET_DESC: CYP450, 2C9 (Homo sapiens, UniProt P11712)
- Construct: gene CYP2C9
- Sequence (P11712 whole entry): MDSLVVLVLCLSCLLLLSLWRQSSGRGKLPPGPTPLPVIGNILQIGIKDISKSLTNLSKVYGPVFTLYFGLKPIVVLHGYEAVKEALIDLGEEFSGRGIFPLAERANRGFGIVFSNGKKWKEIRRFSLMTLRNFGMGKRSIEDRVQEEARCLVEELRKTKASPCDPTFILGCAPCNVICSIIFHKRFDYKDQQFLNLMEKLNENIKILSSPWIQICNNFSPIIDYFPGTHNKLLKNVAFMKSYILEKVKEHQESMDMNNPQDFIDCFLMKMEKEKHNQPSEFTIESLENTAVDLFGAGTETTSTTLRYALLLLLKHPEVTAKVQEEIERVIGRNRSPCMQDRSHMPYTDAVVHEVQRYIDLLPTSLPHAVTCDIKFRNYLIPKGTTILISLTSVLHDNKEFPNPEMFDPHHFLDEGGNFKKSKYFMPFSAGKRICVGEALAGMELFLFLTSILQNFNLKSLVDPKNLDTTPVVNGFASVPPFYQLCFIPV
- EXPERIMENTAL_PROTOCOL: in vitro
- Design: MDS Pharma Lead Profiling + CYP450 screen, enzyme assays, per cent inhibition, duplicate
OUTCOME_MEASURE: inhibition at 10 µM (%)
# output: bare number, implied unit %

Supply reported inhibition at 10 µM belonging to this compound: Cc1ccc2c(c1)c1c(n2CCc2ccc(C)nc2)CCN(C)C1 [Dimebon] 2
